Kindly supply the reported EC50 values for the records listed here.
System: NRK-52E
Assay: Cytoprotective activity against LPS-induced NRK-52E cells assessed as reduction in cell death measured every 5 min for 72 hrs by xCELLigence based RTCA analysis
Format: functional
Details: Rattus norvegicus

Lookup: Lab note: need EC50 for COc1cc(/C=C/C(=O)OC[C@H]2O[C@@H](OC[C@H]3C(C)=CC(=O)CC3(C)C)[C@H](O)[C@@H](O)[C@@H]2O)cc(OC)c1O on NRK-52E, anyone have it?
Found: 35.6 µM

Lookup: Lab note: need EC50 for CC1=C(CO)C(C)(C)C[C@H](O)[C@H]1O on NRK-52E, anyone have it?
Found: > 100 µM

Lookup: Lab note: need EC50 for CC1=CC(=O)CC(C)(C)[C@@H]1CO[C@@H]1O[C@H](CO)[C@@H](O)[C@H](O)[C@H]1O on NRK-52E, anyone have it?
Found: > 100 µM

Lookup: Lab note: need EC50 for CC1(C)CC(=O)C=C(C(=O)O)[C@@]1(C)O on NRK-52E, anyone have it?
Found: > 100 µM

Lookup: Lab note: need EC50 for CC1(C)CC(=O)C=C(C(=O)O)[C@]1(C)O on NRK-52E, anyone have it?
Found: > 100 µM

Lookup: Lab note: need EC50 for Cc1c(C)c2c(c(C)c1O)CCC(C)(C(=O)O)O2 (stereo unspecified) on NRK-52E, anyone have it?
Found: 1.9 µM

Lookup: Lab note: need EC50 for C=C(C)[C@@H]1CC[C@@H]2[C@]3(CC[C@]4(C)[C@@H]([C@@H]5CC[C@H]([C@](C)(O)CO)OC5)CC[C@@]24C)C[C@]13CCC(=O)O on NRK-52E, anyone have it?
Found: 38.4 µM

Lookup: Lab note: need EC50 for C=C(C)[C@@H]1CC[C@@H]2[C@]3(CC[C@]4(C)[C@@H]([C@H](CO)CC/C=C(/C)CO)CC[C@@]24C)C[C@]13CCC(=O)OC on NRK-52E, anyone have it?
Found: > 100 µM

Lookup: Lab note: need EC50 for C=C1C(CO[C@@H]2O[C@H](COC(=O)/C=C/c3cc(OC)c(O)c(OC)c3)[C@@H](O)[C@H](O)[C@H]2O)=CC(=O)CC1(C)C on NRK-52E, anyone have it?
Found: > 100 µM

Lookup: Lab note: need EC50 for CC1=CC(=O)CC(C)(C)[C@H]1CO[C@@H]1O[C@H](CO)[C@@H](O)[C@H](O)[C@H]1O on NRK-52E, anyone have it?
Found: 1.2 µM

Lookup: Lab note: need EC50 for C=C(C)[C@@H]1CC[C@@H]2[C@]3(CC[C@]4(C)[C@@H]([C@H](CO)CC/C=C(/C)CO)CC[C@@]24C)C[C@]13CCC(=O)O on NRK-52E, anyone have it?
Found: 11.5 µM

Lookup: Lab note: need EC50 for CC1=C(CO)C(C)(C)C[C@H](O)[C@@H]1O[C@@H]1O[C@H](CO)[C@@H](O)[C@H](O)[C@H]1O on NRK-52E, anyone have it?
Found: > 100 µM

Lookup: Lab note: need EC50 for C[C@@H]1CC[C@]2(C(=O)O)CC[C@]3(C)C(=CC[C@@H]4[C@@]5(C)CC[C@H](O)C(C)(C)[C@@H]5CC[C@]43C)[C@@H]2[C@]1(C)O on NRK-52E, anyone have it?
Found: 0.0142 µM

Lookup: Lab note: need EC50 for CC1(C)CC(O)CC2=C1C(=O)OC2 (stereo unspecified) on NRK-52E, anyone have it?
Found: > 100 µM

Lookup: Lab note: need EC50 for CC1(C)C[C@H](O)[C@H](O[C@@H]2O[C@H](CO)[C@@H](O)[C@H](O)[C@H]2O)C2=C1C(=O)OC2 on NRK-52E, anyone have it?
Found: > 100 µM

Lookup: Lab note: need EC50 for CC1=C(CO)C(C)(C)C[C@H](O)[C@@H]1O on NRK-52E, anyone have it?
Found: > 100 µM

Lookup: Lab note: need EC50 for C=C(C)[C@@H]1CC[C@@H]2[C@]3(CC[C@]4(C)[C@@H]([C@@H]5CC[C@H]([C@](C)(O)CO)OC5)CC[C@@]24C)C[C@]13CCC(=O)OC on NRK-52E, anyone have it?
Found: > 100 µM

Lookup: Lab note: need EC50 for Cc1ccc2c(c1C)C1=CC[C@@H]3[C@@]4(C)CC[C@H](O)C(CO)(CO)[C@@H]4CC[C@@]3(C)[C@]1(C)C[C@@H]2O on NRK-52E, anyone have it?
Found: > 100 µM

Lookup: Lab note: need EC50 for C[C@@H]1CC[C@]2(C(=O)O)CC[C@]3(C)C(=CC[C@@H]4[C@@]5(C)CC[C@H](O)[C@@](C)(CO)[C@@H]5[C@H](O)C[C@]43C)[C@@H]2[C@]1(C)O on NRK-52E, anyone have it?
Found: > 100 µM

Lookup: Lab note: need EC50 for C[C@@H]1CC[C@]2(C(=O)O)CC[C@]3(C)C(=CC[C@@H]4[C@@]5(C)CC[C@H](O)C(CO)(CO)[C@@H]5CC[C@]43C)[C@@H]2[C@]1(C)O on NRK-52E, anyone have it?
Found: 1.6 µM

Lookup: Lab note: need EC50 for CC1=C(C(=O)O[C@@H]2O[C@H](CO)[C@@H](O)[C@H](O)[C@H]2O)C(C)(C)CC[C@@H]1O on NRK-52E, anyone have it?
Found: > 100 µM

Lookup: Lab note: need EC50 for CC1(C)CC[C@]2(C(=O)O)CC[C@]3(C)C(=CC[C@@H]4[C@@]5(C)CC[C@H](O)[C@@](C)(CO)[C@@H]5[C@H](O)C[C@]43C)[C@@H]2[C@@H]1O on NRK-52E, anyone have it?
Found: 0.118 µM

Lookup: Lab note: need EC50 for COC(=O)CC[C@]12C[C@]13CC[C@]1(C)[C@@H]([C@H](CO)CC/C=C(/C)CO)CC[C@@]1(C)[C@@H]3CC[C@H]2C(C)(C)O on NRK-52E, anyone have it?
Found: 26.8 µM

Lookup: Lab note: need EC50 for CC1=CC(=O)CC(C)(C)[C@]1(O)CO on NRK-52E, anyone have it?
Found: > 100 µM

Lookup: Lab note: need EC50 for C[C@H]1[C@H](C)CC[C@]2(C(=O)O)CC[C@]3(C)C(=CC[C@@H]4[C@@]5(C)CC[C@H](O)[C@@](C)(CO)[C@@H]5CC[C@]43C)[C@H]12 on NRK-52E, anyone have it?
Found: > 100 µM

Lookup: Lab note: need EC50 for CC1=CC(=O)CC(C)(C)[C@@H]1CO on NRK-52E, anyone have it?
Found: 1.4 µM

Lookup: Lab note: need EC50 for CO[C@H]1C[C@]2(C)C(=CC[C@@H]3[C@@]4(C)CC[C@H](O)C(CO)(CO)[C@@H]4CC[C@]32C)c2c1ccc(C)c2C on NRK-52E, anyone have it?
Found: > 100 µM

Lookup: Lab note: need EC50 for CC1=C(C(=O)O)C(C)(C)C[C@H](O)[C@@H]1O on NRK-52E, anyone have it?
Found: 0.146 µM

Lookup: Lab note: need EC50 for CC1=C(C(=O)O)C(C)(C)[C@@H](O)[C@H](O)C1 on NRK-52E, anyone have it?
Found: > 100 µM

Lookup: Lab note: need EC50 for CC1=C(C(=O)O)C(C)(C)C=CC1=O on NRK-52E, anyone have it?
Found: > 100 µM

Lookup: Lab note: need EC50 for C=C(CO)[C@@H]1CC[C@@H]2[C@]3(CC[C@]4(C)[C@@H]([C@H](CO)CC/C=C(/C)CO)CC[C@@]24C)C[C@]13CCC(=O)OC on NRK-52E, anyone have it?
Found: > 100 µM
